Target: T1, CD19 (UniProt P15391 20-556, limits assumed)
T1 construct: whole, on cells; also called CD19 on JeKo-1
T1 sequence (looked up): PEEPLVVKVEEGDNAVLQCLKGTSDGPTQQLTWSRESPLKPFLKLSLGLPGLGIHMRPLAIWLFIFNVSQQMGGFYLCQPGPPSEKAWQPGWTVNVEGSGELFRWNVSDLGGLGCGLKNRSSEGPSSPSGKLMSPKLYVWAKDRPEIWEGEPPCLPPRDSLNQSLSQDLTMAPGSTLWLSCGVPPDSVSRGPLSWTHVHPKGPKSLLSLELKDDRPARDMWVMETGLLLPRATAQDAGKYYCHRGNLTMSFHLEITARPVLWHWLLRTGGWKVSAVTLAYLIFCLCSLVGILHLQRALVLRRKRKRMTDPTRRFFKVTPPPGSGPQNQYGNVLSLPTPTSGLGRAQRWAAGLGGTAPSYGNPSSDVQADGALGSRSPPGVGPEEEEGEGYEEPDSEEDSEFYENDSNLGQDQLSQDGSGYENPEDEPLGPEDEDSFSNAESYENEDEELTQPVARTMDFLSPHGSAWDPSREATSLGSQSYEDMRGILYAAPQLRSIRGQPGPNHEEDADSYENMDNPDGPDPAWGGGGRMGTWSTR
Experiment: flow cytometry, JeKo-1 cells, BIL03s-AF647 detection, MFI over no-bridge control
# if measured MFIR BIL03 AF647 < 10: fulfilled  # else: not fulfilled

Could you please tell me whether MFIR BIL03 AF647 recorded for CD19 BRIDGE variant B25 (Fab, V domains shown) VH: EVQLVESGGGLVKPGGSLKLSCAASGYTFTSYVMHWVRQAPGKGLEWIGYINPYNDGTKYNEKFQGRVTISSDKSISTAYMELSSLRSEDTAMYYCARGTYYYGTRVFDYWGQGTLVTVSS VL: DIVMTQSPATLSLSPGERATLSCRSSKSLQNVNGNTYLYWFQQKPGQSPQLLIYRMSNLNSGVPDRFSGSGSGTEFTLTISSLEPEDFAVYYCMQHLEYPITFGAGTKLEIKR is less than 10?
not fulfilled

In the record for CD19 BRIDGE variant B9 (Fab, V domains shown) VH: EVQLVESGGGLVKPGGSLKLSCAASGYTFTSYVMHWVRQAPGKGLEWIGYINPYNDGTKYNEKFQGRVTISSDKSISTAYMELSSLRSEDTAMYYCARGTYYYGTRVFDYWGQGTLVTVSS VL: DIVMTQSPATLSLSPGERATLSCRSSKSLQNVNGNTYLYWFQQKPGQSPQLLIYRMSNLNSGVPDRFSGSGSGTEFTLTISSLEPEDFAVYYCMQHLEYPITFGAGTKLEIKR , is MFIR BIL03 AF647 less than 10?
not fulfilled

Given CD19 BRIDGE variant B20 (Fab, V domains shown) VH: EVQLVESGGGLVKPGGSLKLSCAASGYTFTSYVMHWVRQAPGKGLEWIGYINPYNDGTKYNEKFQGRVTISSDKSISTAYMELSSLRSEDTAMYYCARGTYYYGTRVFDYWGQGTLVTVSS VL: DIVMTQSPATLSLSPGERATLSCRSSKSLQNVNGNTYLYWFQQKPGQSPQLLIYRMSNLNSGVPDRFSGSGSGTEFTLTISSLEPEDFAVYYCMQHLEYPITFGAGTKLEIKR , is recorded MFIR BIL03 AF647 strictly lower than 10?
fulfilled

Consider the binder CD19 BRIDGE variant B1 (Fab, V domains shown) VH: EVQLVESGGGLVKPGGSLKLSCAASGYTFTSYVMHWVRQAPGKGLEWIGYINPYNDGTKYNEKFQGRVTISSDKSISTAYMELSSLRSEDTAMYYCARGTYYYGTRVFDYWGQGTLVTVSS VL: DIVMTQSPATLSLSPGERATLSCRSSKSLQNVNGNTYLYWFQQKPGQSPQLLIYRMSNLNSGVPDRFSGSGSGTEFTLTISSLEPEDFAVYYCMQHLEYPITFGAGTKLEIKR . Is its MFIR BIL03 AF647 strictly less than 10?
fulfilled

MFIR BIL03 AF647 strictly < 10 for this binder? CD19 BRIDGE variant B8 (Fab, V domains shown) VH: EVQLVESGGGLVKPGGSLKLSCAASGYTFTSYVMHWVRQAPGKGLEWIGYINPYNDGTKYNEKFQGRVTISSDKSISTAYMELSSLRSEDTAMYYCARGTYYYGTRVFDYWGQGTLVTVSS VL: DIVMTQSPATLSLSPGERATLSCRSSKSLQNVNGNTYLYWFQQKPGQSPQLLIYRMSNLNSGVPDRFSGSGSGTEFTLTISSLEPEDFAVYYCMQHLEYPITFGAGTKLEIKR
not fulfilled

# TODO verify MFIR BIL03 AF647 < 10 strictly for this binder: CD19 BRIDGE variant B19 (Fab, V domains shown) VH: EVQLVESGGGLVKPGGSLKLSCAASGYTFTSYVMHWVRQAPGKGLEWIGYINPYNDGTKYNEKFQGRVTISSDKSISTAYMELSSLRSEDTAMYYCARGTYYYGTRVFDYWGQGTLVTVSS VL: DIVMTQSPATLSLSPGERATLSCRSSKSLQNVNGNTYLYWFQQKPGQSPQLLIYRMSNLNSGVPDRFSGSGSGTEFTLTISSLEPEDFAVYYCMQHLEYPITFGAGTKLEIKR
not fulfilled

Lab log: compare recorded MFIR BIL03 AF647 with 10; is it strictly lower for CD19 BRIDGE variant B14 (Fab, V domains shown) VH: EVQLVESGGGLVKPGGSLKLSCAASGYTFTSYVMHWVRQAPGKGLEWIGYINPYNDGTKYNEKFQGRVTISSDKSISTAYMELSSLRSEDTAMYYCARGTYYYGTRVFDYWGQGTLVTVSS VL: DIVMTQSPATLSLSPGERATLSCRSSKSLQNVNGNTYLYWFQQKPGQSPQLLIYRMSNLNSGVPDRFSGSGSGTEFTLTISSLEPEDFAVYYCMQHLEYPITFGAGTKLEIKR ?
not fulfilled

Would you kindly verify if MFIR BIL03 AF647 of CD19 BRIDGE variant B7 (Fab, V domains shown) VH: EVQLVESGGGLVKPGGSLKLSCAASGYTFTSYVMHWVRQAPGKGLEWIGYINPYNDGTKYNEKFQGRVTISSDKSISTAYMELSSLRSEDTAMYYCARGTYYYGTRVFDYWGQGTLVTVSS VL: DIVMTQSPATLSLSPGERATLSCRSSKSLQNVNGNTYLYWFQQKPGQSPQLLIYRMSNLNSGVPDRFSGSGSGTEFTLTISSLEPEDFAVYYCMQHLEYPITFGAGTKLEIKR is strictly less than 10?
not fulfilled

Bench note: check whether CD19 BRIDGE variant B3 (Fab, V domains shown) VH: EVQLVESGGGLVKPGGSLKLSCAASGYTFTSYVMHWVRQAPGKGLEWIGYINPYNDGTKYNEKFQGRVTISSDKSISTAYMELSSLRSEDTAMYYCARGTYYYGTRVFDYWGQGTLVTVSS VL: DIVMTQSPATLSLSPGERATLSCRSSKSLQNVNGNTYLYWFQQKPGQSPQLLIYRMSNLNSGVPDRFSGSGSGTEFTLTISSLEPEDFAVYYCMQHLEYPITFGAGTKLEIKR shows MFIR BIL03 AF647 below 10
not fulfilled

Lab log: compare recorded MFIR BIL03 AF647 with 10; is it strictly lower for CD19 BRIDGE variant B26 (Fab, V domains shown) VH: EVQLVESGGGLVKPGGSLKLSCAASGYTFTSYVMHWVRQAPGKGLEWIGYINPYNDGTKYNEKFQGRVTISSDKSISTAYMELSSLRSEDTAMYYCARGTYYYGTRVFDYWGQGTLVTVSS VL: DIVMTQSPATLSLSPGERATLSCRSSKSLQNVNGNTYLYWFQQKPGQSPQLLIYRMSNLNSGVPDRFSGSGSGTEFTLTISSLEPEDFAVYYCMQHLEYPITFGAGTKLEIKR ?
not fulfilled

Confirm or reject: MFIR BIL03 AF647 of CD19 BRIDGE variant B2 (Fab, V domains shown) VH: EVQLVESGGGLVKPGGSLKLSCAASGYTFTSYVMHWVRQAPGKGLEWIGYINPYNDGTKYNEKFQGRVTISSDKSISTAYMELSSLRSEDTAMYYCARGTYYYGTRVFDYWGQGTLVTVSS VL: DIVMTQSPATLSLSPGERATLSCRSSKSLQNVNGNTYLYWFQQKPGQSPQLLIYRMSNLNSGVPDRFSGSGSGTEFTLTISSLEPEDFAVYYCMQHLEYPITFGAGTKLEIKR lies strictly below 10
fulfilled
